Reference for the values: patent US20130281465A1

Let's look at some compounds and their measured IC50.
Target: human orexin type 1 receptor (hOX1R) (Homo sapiens)
Sequence (O43613 whole entry): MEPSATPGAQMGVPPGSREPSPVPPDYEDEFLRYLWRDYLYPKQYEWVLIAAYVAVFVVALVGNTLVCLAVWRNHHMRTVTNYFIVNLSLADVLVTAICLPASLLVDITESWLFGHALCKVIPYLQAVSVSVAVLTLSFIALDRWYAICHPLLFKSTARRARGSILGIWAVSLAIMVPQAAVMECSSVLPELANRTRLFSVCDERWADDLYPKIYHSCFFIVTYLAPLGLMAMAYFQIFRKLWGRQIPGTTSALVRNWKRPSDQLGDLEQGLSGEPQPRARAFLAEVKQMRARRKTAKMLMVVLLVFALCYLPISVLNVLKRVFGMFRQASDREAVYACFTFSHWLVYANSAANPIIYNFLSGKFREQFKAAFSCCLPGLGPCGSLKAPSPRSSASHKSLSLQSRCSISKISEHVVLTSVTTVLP
Test: Orexin receptor antagonistic activity, intracellular Ca2+ fluorescence (FDSS) in CHO cells expressing hOX1R
Details: CHO cells forced to express hOX1R; orexin-A analogue peptide ligand 300 pM; Fluo-4 maximum fluorescence; read-out: IC50 value OX1R
Field: numeric (nM). Do not append units.

Solved cases (3 shown):
CCN(CCn1cc(-c2ccc(F)cn2)cn1)C(=O)c1cc(Cl)ccc1-n1nccn1    1.6
CCN(CCn1ccc(-c2ccc(F)cn2)n1)C(=O)c1ccccc1-n1nccn1    9
CCN(CCn1cc(-c2ccc(Cl)cn2)cn1)C(=O)c1cc(C)ccc1-n1nccn1    14.4

Problem: Find the measured IC50 of CCN(CCn1ccc(-c2cccc(C(F)(F)F)n2)n1)C(=O)c1ccccc1-c1ncccn1 with human orexin type 1 receptor (hOX1R) (Homo sapiens) as test system.
Result: 78.9

Problem: Find the measured IC50 of CCN(CCn1ccc(-c2ccc(F)cn2)n1)C(=O)c1cc(F)ccc1-c1ncccn1 with human orexin type 1 receptor (hOX1R) (Homo sapiens) as test system.
Result: 0.5

Problem: Find the measured IC50 of CCN(CCn1ccc(-c2ccc(F)cc2)n1)C(=O)c1cc(F)ccc1-c1ncccn1 with human orexin type 1 receptor (hOX1R) (Homo sapiens) as test system.
Result: 2

Problem: Find the measured IC50 of Cc1ccc(-n2nccn2)c(C(=O)N(CCn2ccc(-c3ccc(F)cc3)n2)CC2CC2)c1 with human orexin type 1 receptor (hOX1R) (Homo sapiens) as test system.
Result: 1.2

Problem: Find the measured IC50 of Cc1ccc(-n2nccn2)c(C(=O)N(C)CCn2ccc(-c3ccc(F)cn3)n2)c1 with human orexin type 1 receptor (hOX1R) (Homo sapiens) as test system.
Result: 5.6
